// provenance: the supplement of paper PMC8024199

test system: Ba/F3 P210-BCR-ABL1 RUNX1wt/wt control (mouse); experiment: drug sensitivity score (DSS) (DSS score); higher = more sensitive (stronger growth inhibition); extreme values may be limits of the assay
Measure name: drug sensitivity score
When you answer, write just the number.

Some solved entries appear below for comparison.
| Substance smiles | Target of assay | drug sensitivity score |
| --- | --- | --- |
| Cc1cc(Nc2cc(N3CCN(C)CC3)nc(Sc3ccc(NC(=O)C4CC4)cc3)n2)n[nH]1 | Ba/F3 P210-BCR-ABL1 RUNX1wt/wt control (mouse) | 7.95 |
| CCOCc1nc2c(N)nc3ccccc3c2n1CC(C)(C)O | Ba/F3 P210-BCR-ABL1 RUNX1wt/wt control (mouse) | 0.15 |
| COc1cc2c(NC3CCN(C(C)C)CC3)nc(C3CCCCC3)nc2cc1OCCCN1CCCC1 | Ba/F3 P210-BCR-ABL1 RUNX1wt/wt control (mouse) | 1.45 |
| Cc1ccc(F)c(NC(=O)Nc2ccc(-c3cccc4[nH]nc(N)c34)cc2)c1 | Ba/F3 P210-BCR-ABL1 RUNX1wt/wt control (mouse) | 0.1 |

In: Could you share which drug sensitivity score value was measured for `Nc1nc(Cl)nc2c1ncn2[C@H]1C[C@H](O)[C@@H](CO)O1` ?
Out: 4.4

In: Could you share which drug sensitivity score value was measured for `CS(=O)(=O)N1CCN(Cc2cc3nc(-c4cccc5[nH]ncc45)nc(N4CCOCC4)c3s2)CC1` ?
Out: 2.35

In: Could you share which drug sensitivity score value was measured for `Nc1ncn([C@H]2C[C@H](O)[C@@H](CO)O2)c(=O)n1` ?
Out: 5.3

In: Could you share which drug sensitivity score value was measured for `Nc1nc(OCc2cc(Br)cs2)c2[nH]cnc2n1` ?
Out: 0

In: Could you share which drug sensitivity score value was measured for `C#Cc1cccc(Nc2ncnc3cc4c(cc23)OCCOCCOCCO4)c1` ?
Out: 0

In: Could you share which drug sensitivity score value was measured for `CCN(c1cc(-c2ccc(CN3CCOCC3)cc2)cc(C(=O)NCc2c(C)cc(C)[nH]c2=O)c1C)C1CCOCC1` ?
Out: 0

In: Could you share which drug sensitivity score value was measured for `C[C@@H]1COCCN1c1cc(C2([S@](C)(=N)=O)CC2)nc(-c2cc[nH]c3nccc2-3)n1` ?
Out: 18
